assay: Metabolic stability in dog hepatocytes assessed as compound remaining measured after 60 mins; type: ADME, cell-based, Canis lupus familiaris, Hepatocyte; details: read-out: Stability
Measurement Kind: remaining at 1 h (%)

INSERT INTO results (compound, result_value) VALUES
  ('Cc1ccc(NC(=O)N2CC[C@@H](CC(F)(F)F)C2)cc1-c1cc(N[C@H](C)CO)nc(N2CCOCC2)c1 [EXARAFENIB]', 72);

---

test: Cmax in rat at 10 mg/kg, po or 2 mg/kg, iv; type: ADME, organism-based; conditions: in vivo
Measurement Kind: Cmax (nM)

INSERT INTO results (input_smiles, result_value) VALUES
  ('Cc1ccc(NC(=O)N2CC[C@@H](CC(F)(F)F)C2)cc1-c1cc(N[C@H](C)CO)nc(N2CCOCC2)c1', 1400);

---

Reported solubility kinetic is given for each of the following compounds.
experiment: Kinetic aqueous solubility of compound at pH 7.4; type: physicochemical; conditions: read-out: Kinetic_solubility
Measurement Kind: solubility kinetic (µM)

INSERT INTO assay_data (compound, measurement_kind, result_value) VALUES
  ('Cc1ccc(NC(=O)N2CC[C@@H](CC(F)(F)F)C2)cc1-c1cc(O[C@H](C)CO)nc(N2CCOCC2)c1', 'solubility kinetic', 17),
  ('Cc1ccc(NC(=O)N2CC[C@@H](C(F)(F)F)C2)cc1-c1cc(OCCO)nc(N2CCOCC2)c1', 'solubility kinetic', 83),
  ('Cc1ccc(NC(=O)N2CCO[C@@H](C(F)(F)F)C2)cc1-c1cc(OCCO)nc(N2CCOCC2)c1', 'solubility kinetic', 56),
  ('Cc1ccc(NC(=O)N2CC[C@@H](CC(F)(F)F)C2)cc1-c1cc(OCCO)nc(N2CCOCC2)c1', 'solubility kinetic', 39),
  ('Cc1ccc(NC(=O)N2CC[C@H](CC(F)(F)F)C2)cc1-c1cc(OCCO)nc(N2CCOCC2)c1', 'solubility kinetic', 43),
  ('Cc1ccc(NC(=O)N2CC[C@@H](CC(F)(F)F)C2)cc1-c1cc(N[C@H](C)CO)nc(N2CCOCC2)c1 [EXARAFENIB]', 'solubility kinetic', 29),
  ('Cc1ccc(NC(=O)N2CC[C@H](C(F)(F)F)C2)cc1-c1cc(OCCO)nc(N2CCOCC2)c1', 'solubility kinetic', 83),
  ('Cc1ccc(NC(=O)N2CCO[C@H](C(F)(F)F)C2)cc1-c1cc(OCCO)nc(N2CCOCC2)c1', 'solubility kinetic', 62),
  ('Cc1ccc(NC(=O)N2CC[C@@H](CC(F)(F)F)C2)cc1-c1cc(OC[C@@H](C)O)nc(N2CCOCC2)c1', 'solubility kinetic', 23),
  ('Cc1ccc(NC(=O)N2CC[C@@H](CC(F)(F)F)C2)cc1-c1cc(OCC(C)(C)O)nc(N2CCOCC2)c1', 'solubility kinetic', 15),
  ('Cc1ccc(NC(=O)N2CC[C@@H](CC(F)(F)F)C2)cc1-c1cc(O[C@@H](C)CO)nc(N2CCOCC2)c1', 'solubility kinetic', 56);

---

assay: Metabolic stability in mouse hepatocytes assessed as compound remaining measured after 60 mins; assay type: ADME, cell-based, Hepatocyte; conditions: read-out: Stability
Measurement Kind: remaining at 1 h (%)

INSERT INTO assay_data (input_smiles, result_value) VALUES
  ('Cc1ccc(NC(=O)N2CC[C@@H](CC(F)(F)F)C2)cc1-c1cc(N[C@H](C)CO)nc(N2CCOCC2)c1', 62);
